Attribution: patent US5530126A

# Test system: Seedling johnsongrass
# measurement-protocol: Post-emergence herbicide test
# Type: in vivo
# measurement-setup: Sorghum halepense, 11.21 kg/ha, read-out: % plant inhibition (Sejg)
I would appreciate it if you labelled entries T when inhibition at 11210 g/ha is 70% or higher, otherwise F.

Some solved entries appear below for comparison.
CC(=O)OCc1cc(-c2nn(C)c(C(F)(F)F)c2Cl)c(F)cc1Cl [Compound 121]
T
COc1cc(-c2c(Cl)c(C(F)(F)F)nn2C)c(F)cc1N [Compound 73]
F
Cn1nc(-c2ccc(Cl)cc2)c(Cl)c1C(F)(F)F [Compound 82]
F
C#CCOc1cc(-c2nn(C)c(C(F)(F)Cl)c2Cl)c(F)cc1Cl [Compound 303]
T
COc1cc(F)c(-c2c(Cl)c(C(F)(F)F)nn2C)cc1[N+](=O)[O-] [Compound 78]
F

Prompt line: Reported inhibition at 11210 g/ha reaches at least 70% for Cn1nc(-c2cc(F)c(Cl)cc2Cl)c(Cl)c1C(F)(F)F [Compound 84] ?
Response line: F

Prompt line: Please check the record Cn1nc(C(F)(F)Cl)c(Cl)c1-c1ccc(Cl)cc1 [Compound 67] and state if its inhibition at 11210 g/ha is at or above 70%.
Response line: T

Prompt line: In plain terms: is recorded inhibition at 11210 g/ha at least 70% for C#CCOc1cc(-c2nn(C)c(C(F)(F)F)c2Cl)c(F)cc1Cl [Compound 261] ?
Response line: T

Prompt line: Tell me whether inhibition at 11210 g/ha is at least 70% here: CNC(=O)Cc1cc(-c2nn(C)c(C(F)(F)F)c2Cl)c(F)cc1Cl [Compound 114]
Response line: F

Prompt line: Item Cn1nc(-c2cc(N(S(C)(=O)=O)S(C)(=O)=O)c(Cl)cc2Cl)c(Cl)c1C(F)(F)F [Compound 87] with inhibition at 11210 g/ha of 70% or above?
Response line: F

Prompt line: API: above_or_equal(metric=inhibition at 11210 g/ha, cutoff=70%) for item Cn1nc(-c2cc(CC(N)=O)c(Cl)cc2F)c(Cl)c1C(F)(F)F [Compound 112]
Response line: F

Prompt line: For this compound, is measured inhibition at 11210 g/ha 70% or higher? Cn1nc(C(F)(F)F)c(Br)c1-c1cc(F)ccc1F [Compound 68]
Response line: F

Prompt line: Reported inhibition at 11210 g/ha reaches at least 70% for Cn1nc(-c2cc(CC(=O)NCCCl)c(Cl)cc2F)c(Cl)c1C(F)(F)F [Compound 113] ?
Response line: F

====

Field: inhibition at 11210 g/ha. Provide a value for each of the molecules that follow.
# Tested on: Cocklebur
# measurement-protocol: Post-emergence herbicide test
# Type: in vivo
# measurement-setup: Xanthium strumarium, 11.21 kg/ha, read-out: % plant inhibition (Cobu)
# Source text: Topsoil is placed in aluminum pans having holes in the bottom and compacted to a depth of 0.95 to 1.27 cm from the top of the pan. A predetermined number of seeds of each of several dicotyledonous and monocotyledonous annual plant species and/or vegetative propagules for the perennial plant species are placed on the soil and pressed into the soil surface. The seeds and/or vegetative propagules are covered with soil and leveled. […]

# annotated cases, reported inhibition at 11210 g/ha shown
Cn1nc(-c2cc(N3CCOCC3)c(Cl)cc2F)c(Cl)c1C(F)(F)F
90%
COc1cc(F)c(-c2c(Cl)c(C(F)(F)F)nn2C)cc1[N+](=O)[O-]
10%
Cn1nc(-c2cc(Oc3ccc(C(F)(F)F)cc3)c(Cl)cc2F)c(Cl)c1C(F)(F)F
60%

Prompt line: Given the molecule CC(=O)OCc1cc(-c2nn(C)c(C(F)(F)F)c2Cl)c(F)cc1Cl , write its reported inhibition at 11210 g/ha.
Response line: 90%

====

Provide the recorded inhibition at 1120 g/ha for the entries that follow.
# Test system: Annual bluegrass
# measurement-protocol: Post-emergence herbicide test
# Format: in vivo
# measurement-setup: 1.12 kg/ha, read-out: % plant inhibition (Anbg)
Just the number plus its unit, please.

Please review the following examples before continuing.
Cn1nc(-c2cc(OCc3ccccn3)c(Cl)cc2F)c(Cl)c1C(F)(F)F [Compound 251]
80%
Cn1nc(-c2cc(C=O)c(Cl)cc2F)c(Cl)c1C(F)(F)F [Compound 133]
0%
Cn1nc(-c2cc(COCCF)c(Cl)cc2F)c(Cl)c1C(F)(F)F [Compound 116]
80%
Cn1nc(-c2cc(S)c(Cl)cc2Cl)c(Cl)c1C(F)(F)F [Compound 93]
10%

Below are some compounds; for each one, tell me its inhibition at 1120 g/ha.
1. Cc1cc(-c2nn(C)c(C(F)F)c2Cl)c(F)cc1Cl [Compound 126]
2. CCS(=O)(=O)Nc1cc(-c2nn(C)c(C(F)(F)F)c2Cl)c(Cl)cc1Cl [Compound 92]
3. CC(C)COC(=O)c1cc(-c2nn(C)c(C(F)(F)F)c2Cl)c(F)cc1Cl [Compound 139]
4. Cc1cc(-c2nn(C)c(C(F)(F)F)c2Br)c(F)cc1Cl [Compound 125]
5. CCC(C)COC(=O)COc1cc(-c2nn(C)c(C(F)(F)F)c2Cl)c(F)cc1Cl (stereo not drawn) [Compound 287]

Response line:
40%
30%
90%
20%
0%

====

# System: Indian Mustard
# measurement-protocol: Pre-emergence herbicide test
# Type: in vivo
# measurement-setup: Brassica juncea, 1.12 kg/ha, read-out: % plant inhibition (Inmu)
Record YES whenever inhibition at 1120 g/ha is at 80% or higher; record NO when lower.

Prompt line: Hello, I need to know if COc1cc(-c2c(Cl)c(C(F)(F)F)nn2C)c(F)cc1Cl [Compound 74] has measured inhibition at 1120 g/ha not below 80%. Thanks!
Response line: YES

Prompt line: Exam item: decide whether the reported inhibition at 1120 g/ha for CC(C#N)c1cc(-c2nn(C)c(C(F)(F)F)c2Cl)c(F)cc1Cl (stereo not drawn) [Compound 106] is at least 80%.
Response line: YES

Prompt line: Please indicate if the recorded inhibition at 1120 g/ha for Cn1nc(-c2cc(C3=NCCO3)c(Cl)cc2F)c(Cl)c1C(F)(F)F [Compound 98] meets or exceeds 80%.
Response line: NO

Prompt line: Record Cc1cc(-c2nn(C)c(C(F)F)c2Cl)c(F)cc1Cl [Compound 126] ; criterion: inhibition at 1120 g/ha no lower than 80%. Met?
Response line: YES

Prompt line: Is the recorded value of inhibition at 1120 g/ha equal to or greater than 80% for this compound? Cn1nc(-c2cc(OCc3ccccn3)c(Cl)cc2F)c(Cl)c1C(F)(F)F [Compound 251]
Response line: NO

====

# Tested on: Cocklebur
# measurement-protocol: Post-emergence herbicide test
# Format: in vivo
# measurement-setup: Xanthium strumarium, 11.21 kg/ha, read-out: % plant inhibition (Cobu)
Answer False if inhibition at 11210 g/ha is under 20%, and True if it is 20% or more.

Some solved entries appear below for comparison.
Cn1nc(-c2cc(Oc3ccc(C(F)(F)F)cc3Cl)c(Cl)cc2F)c(Cl)c1C(F)(F)F [Compound 203]
True
Cn1nc(C(F)(F)F)c(Cl)c1-c1cc(F)ccc1F [Compound 69]
False
Cn1nc(-c2cc(N(S(C)(=O)=O)S(C)(=O)=O)c(Cl)cc2Cl)c(Cl)c1C(F)(F)F [Compound 87]
True
Cn1nc(-c2cc(NC(=O)C(F)(F)F)c(Cl)cc2Cl)c(Cl)c1C(F)(F)F [Compound 88]
True

Below: the item to evaluate.
Prompt line: Determine whether measured inhibition at 11210 g/ha meets or exceeds 20% for Cn1nc(C(F)(F)F)c(Cl)c1-c1ccc(Cl)cc1 [Compound 66]
Response line: False

====

# System: Downy Brome
# measurement-protocol: Post-emergence herbicide test
# Format: in vivo
# measurement-setup: Bromus tectorum, 1.12 kg/ha, read-out: % plant inhibition (Dobr)
Classes are defined on inhibition at 1120 g/ha with ranges lower bin (below 30%), middle bin (30% to below 90%), upper bin (90% or more)

CCOC(=O)C(C)=Cc1cc(-c2nn(C)c(C(F)(F)F)c2Cl)c(F)cc1Cl [Compound 127]
middle bin

Prompt line: Hey, which category is CCOC(=O)CON=Cc1cc(-c2nn(C)c(C(F)(F)F)c2Cl)c(F)cc1Cl [Compound 129] in, do you know?
Response line: middle bin

Prompt line: For Cn1nc(-c2cc(/C=C/C(=O)O)c(Cl)cc2F)c(Cl)c1C(F)(F)F [Compound 351] , which inhibition at 1120 g/ha bin applies?
Response line: middle bin

Prompt line: Could you place Cn1nc(-c2cc(NS(C)(=O)=O)c(Cl)cc2Cl)c(Cl)c1C(F)(F)F [Compound 91] in its proper category? Many thanks.
Response line: middle bin

Prompt line: Assign a category based on measured inhibition at 1120 g/ha for CC(C)OC(=O)COc1cc(-c2nn(C)c(C(F)(F)Cl)c2Cl)c(F)cc1Cl [Compound 285] and give only the class name.
Response line: middle bin

Prompt line: Band assignment needed for Cn1nc(-c2cc(O)c(Br)cc2F)c(Cl)c1C(F)(F)F [Compound 95] please.
Response line: middle bin

Prompt line: Hey, which category is Cn1nc(-c2cc(C=NOCC(N)=O)c(Cl)cc2F)c(Cl)c1C(F)(F)F [Compound 131] in, do you know?
Response line: lower bin

Prompt line: For this compound, which bin applies? CCOC(=O)C(C)OC(=O)c1cc(-c2nn(C)c(C(F)(F)F)c2Cl)c(F)cc1Cl (centres unmarked) [Compound 138]
Response line: upper bin

Prompt line: Which class does CC(C#N)c1cc(-c2nn(C)c(C(F)(F)F)c2Cl)c(F)cc1Cl (centres unmarked) [Compound 106] fall in?
Response line: lower bin

Prompt line: Which class holds Cn1nc(-c2cc(OCc3ccccn3)c(Cl)cc2F)c(Cl)c1C(F)(F)F [Compound 251] ?
Response line: upper bin

Prompt line: Please report the category associated with CCOC(=O)c1cc(-c2nn(C)c(C(F)(F)F)c2Cl)c(F)cc1Cl [Compound 148] , nothing else.
Response line: upper bin

Prompt line: Class label required: COc1cc(-c2c(Cl)c(C(F)(F)F)nn2C)c(F)cc1Cl [Compound 74]
Response line: lower bin

Prompt line: Tag the class for Cn1nc(-c2cc(CCl)c(Cl)cc2F)c(Cl)c1C(F)(F)F [Compound 109]
Response line: lower bin

Prompt line: Category of Cn1nc(-c2cc([N+](=O)[O-])c(Cl)cc2F)c(Cl)c1C(F)F [Compound 198] , please.
Response line: middle bin

Prompt line: Please let me know in which category the item Cn1nc(-c2cc(COCCF)c(Cl)cc2F)c(Cl)c1C(F)(F)F [Compound 116] belongs.
Response line: middle bin

Prompt line: For the record CCOCc1cc(-c2nn(C)c(C(F)(F)F)c2Cl)c(F)cc1Cl [Compound 118] , report the class its inhibition at 1120 g/ha corresponds to.
Response line: lower bin

Prompt line: Bin? CCC(C)OC(=O)c1cc(-c2nn(C)c(C(F)(F)F)c2Cl)c(F)cc1Cl (centres unmarked) [Compound 136]
Response line: upper bin

Prompt line: Could you place CC(C)COC(=O)c1cc(-c2nn(C)c(C(F)(F)F)c2Cl)c(F)cc1Cl [Compound 139] in its proper category? Many thanks.
Response line: upper bin

Prompt line: Field: class (inhibition at 1120 g/ha) — entry: COCCOc1cc(-c2nn(C)c(C(F)(F)F)c2Cl)c(F)cc1Cl [Compound 270]
Response line: upper bin

Prompt line: Categorize the following entry: CC(C)OC(=O)COc1cc(-c2nn(C)c(C(F)(F)F)c2Cl)c(F)cc1Cl [Compound 282]
Response line: lower bin

Prompt line: Lab note: sort CC(C)CCOC(=O)COc1cc(-c2nn(C)c(C(F)(F)F)c2Cl)c(F)cc1Cl [Compound 288] into the matching inhibition at 1120 g/ha band.
Response line: lower bin

Prompt line: Band for CCC(C)COC(=O)COc1cc(-c2nn(C)c(C(F)(F)F)c2Cl)c(F)cc1Cl (centres unmarked) [Compound 287] ?
Response line: lower bin

Prompt line: Form field 'band' for C#CCOCc1cc(-c2nn(C)c(C(F)(F)F)c2Cl)c(F)cc1Cl [Compound 120]
Response line: middle bin

Prompt line: Dear colleague, I would appreciate it if you could identify the bin for COC(=O)Cc1cc(-c2nn(C)c(C(F)(F)F)c2Cl)c(F)cc1Cl [Compound 110] and reply at your convenience.
Response line: lower bin

Prompt line: Class? Entry: CCOC(=O)CON=C(C)c1cc(-c2nn(C)c(C(F)(F)F)c2Cl)c(F)cc1Cl [Compound 104]
Response line: middle bin

Prompt line: Which of the defined bands does the recorded inhibition at 1120 g/ha of COC(=O)C(C)OC(=O)c1cc(-c2nn(C)c(C(F)(F)F)c2Cl)c(F)cc1Cl (centres unmarked) [Compound 137] sit within?
Response line: upper bin

Prompt line: Pick a category. Item: CC(C)OC(=O)c1cc(-c2nn(C)c(C(F)(F)F)c2Cl)c(F)cc1Cl [Compound 135]
Response line: upper bin

Prompt line: // bin(item) where item = CCS(=O)(=O)Nc1cc(-c2nn(C)c(C(F)(F)F)c2Cl)c(Cl)cc1Cl [Compound 92]
Response line: middle bin

Prompt line: Class? Entry: Cn1nc(-c2cc(CC#N)c(Cl)cc2F)c(Cl)c1C(F)(F)F [Compound 115]
Response line: lower bin
